- target system: Integrin alpha-IIb/beta-3 (Homo sapiens, UniProt P05106+P08514)
- Sequence (P05106 27-788 limits assumed): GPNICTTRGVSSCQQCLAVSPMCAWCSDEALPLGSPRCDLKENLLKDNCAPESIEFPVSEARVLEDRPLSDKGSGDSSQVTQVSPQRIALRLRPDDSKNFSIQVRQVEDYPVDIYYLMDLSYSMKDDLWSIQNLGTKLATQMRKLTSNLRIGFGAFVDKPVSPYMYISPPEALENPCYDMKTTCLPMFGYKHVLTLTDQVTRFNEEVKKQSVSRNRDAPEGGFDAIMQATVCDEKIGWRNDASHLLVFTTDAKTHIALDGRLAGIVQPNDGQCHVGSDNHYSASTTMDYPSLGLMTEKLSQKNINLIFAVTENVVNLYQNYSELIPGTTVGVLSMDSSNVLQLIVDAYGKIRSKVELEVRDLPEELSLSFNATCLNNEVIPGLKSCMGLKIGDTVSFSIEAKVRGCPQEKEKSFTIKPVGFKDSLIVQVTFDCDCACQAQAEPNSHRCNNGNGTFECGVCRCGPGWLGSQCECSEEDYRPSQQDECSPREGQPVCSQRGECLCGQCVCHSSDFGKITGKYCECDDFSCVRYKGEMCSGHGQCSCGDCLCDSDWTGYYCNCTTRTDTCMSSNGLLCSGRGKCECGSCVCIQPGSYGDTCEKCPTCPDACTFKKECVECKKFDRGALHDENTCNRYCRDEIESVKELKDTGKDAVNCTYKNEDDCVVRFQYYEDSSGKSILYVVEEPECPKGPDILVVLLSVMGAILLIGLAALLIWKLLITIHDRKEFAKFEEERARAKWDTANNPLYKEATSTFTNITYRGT
- Sequence (P08514 32-887 limits assumed): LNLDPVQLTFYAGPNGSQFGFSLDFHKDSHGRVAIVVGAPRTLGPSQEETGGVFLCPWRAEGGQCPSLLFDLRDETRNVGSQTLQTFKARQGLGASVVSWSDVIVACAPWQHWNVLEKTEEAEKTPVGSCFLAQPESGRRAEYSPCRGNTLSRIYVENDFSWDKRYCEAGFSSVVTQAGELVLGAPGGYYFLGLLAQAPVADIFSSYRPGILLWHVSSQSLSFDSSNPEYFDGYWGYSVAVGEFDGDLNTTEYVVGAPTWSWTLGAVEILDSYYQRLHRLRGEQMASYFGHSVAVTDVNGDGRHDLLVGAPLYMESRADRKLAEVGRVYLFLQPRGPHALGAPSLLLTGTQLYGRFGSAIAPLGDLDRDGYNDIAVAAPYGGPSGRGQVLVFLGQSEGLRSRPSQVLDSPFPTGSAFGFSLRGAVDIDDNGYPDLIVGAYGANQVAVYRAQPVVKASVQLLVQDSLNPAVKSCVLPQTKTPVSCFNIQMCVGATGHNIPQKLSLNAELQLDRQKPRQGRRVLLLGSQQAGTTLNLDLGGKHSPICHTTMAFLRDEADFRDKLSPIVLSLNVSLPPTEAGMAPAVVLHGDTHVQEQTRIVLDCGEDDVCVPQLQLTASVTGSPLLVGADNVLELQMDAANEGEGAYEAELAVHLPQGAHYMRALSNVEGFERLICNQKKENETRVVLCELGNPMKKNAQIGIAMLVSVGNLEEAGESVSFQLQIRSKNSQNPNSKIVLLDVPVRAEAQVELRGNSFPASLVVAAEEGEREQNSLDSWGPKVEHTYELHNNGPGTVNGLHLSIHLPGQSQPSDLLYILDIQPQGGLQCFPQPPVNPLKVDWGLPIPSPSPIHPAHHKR
- Sequence (P08514 891-1039 limits assumed): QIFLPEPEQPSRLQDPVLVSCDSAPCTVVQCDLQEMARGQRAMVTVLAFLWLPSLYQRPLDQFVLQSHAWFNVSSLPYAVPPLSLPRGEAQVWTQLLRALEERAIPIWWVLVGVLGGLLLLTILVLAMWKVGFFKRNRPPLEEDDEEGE
- experimental protocol: Inhibition of FITC-labelled fibrinogen binding to integrin alpha2b beta3 receptor in human platelet cells
pIC50: −log10 of the molar value.
Use 8 as the dividing line for pIC50, with the line itself on the 1 side and lower values as -1.

Here are 4 compounds together with their reported answers.
INSERT INTO results (molecule_smiles, category) VALUES
  ('NCC[C@H](NC(=O)OCc1ccccc1)C(=O)Nc1ccc2nc(N3CCNCC3)[nH]c(=O)c2c1', 1),
  ('CCC(=O)Nc1ccc2nc(N3CCNCC3)[nH]c(=O)c2c1', -1),
  ('NC[C@H](NC(=O)OCc1ccccc1)C(=O)Nc1ccc2nc(N3CCNCC3)[nH]c(=O)c2c1', 1),
  ('O=C(Nc1ccc2nc(N3CCNCC3)[nH]c(=O)c2c1)c1ccc(N2CCNCC2)cc1', -1);

Decide: is the reported value of pIC50 for `CC(C)COC(=O)N[C@@H](CN)C(=O)Nc1ccc2nc(N3CCNCC3)[nH]c(=O)c2c1` equal to or greater than 8?
1
